- procedure text: self-splicing fitness, log relative to wild type (ln ratio); higher = more splicing; Tetrahymena group I intron in knt gene, E. coli kanamycin selection, DiMSum; sequences stand for … in CUCUCU…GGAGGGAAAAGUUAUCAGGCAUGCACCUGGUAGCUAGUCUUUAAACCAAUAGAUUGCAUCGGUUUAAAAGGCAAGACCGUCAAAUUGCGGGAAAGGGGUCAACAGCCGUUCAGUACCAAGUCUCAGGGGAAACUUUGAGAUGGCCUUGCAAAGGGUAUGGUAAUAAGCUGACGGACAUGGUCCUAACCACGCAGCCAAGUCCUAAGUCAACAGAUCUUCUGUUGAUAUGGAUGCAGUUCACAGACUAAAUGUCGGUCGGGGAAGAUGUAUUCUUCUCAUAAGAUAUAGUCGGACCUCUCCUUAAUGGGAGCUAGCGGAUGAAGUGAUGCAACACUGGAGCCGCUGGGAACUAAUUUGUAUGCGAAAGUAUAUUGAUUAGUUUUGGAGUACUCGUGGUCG;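 note: selection with 25 µg/mL kanamycin versus none on LB agar overnight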
- test settings: 37 °C
Lab note: anything with self-splicing fitness (ln) at or over -2 counts as 1 (yes); the rest go in 0 (no).

{"sequence content": "GCUCAGCAAUAUUACGAAGC", "qualitative label": "0 (no)"}
{"sequence content": "UAAAAGCAAUAUUACGACGC", "qualitative label": "1 (yes)"}
{"sequence content": "UCCGAGCAAUAUUACGCCUA", "qualitative label": "0 (no)"}
{"sequence content": "GACCAGCAAUAUUACGGGAC", "qualitative label": "1 (yes)"}
{"sequence content": "GGUAAGCAAUAUUACGUGAA", "qualitative label": "1 (yes)"}
{"sequence content": "CAAUAGCAAUAUUACGUCCU", "qualitative label": "0 (no)"}
{"sequence content": "CCGCAGCAAUAUUACGAUCU", "qualitative label": "0 (no)"}
{"sequence content": "CUCGAGCAAUAUUACGUGUC", "qualitative label": "0 (no)"}
{"sequence content": "UAAGAGCAAUAUUACGUCAG", "qualitative label": "0 (no)"}
{"sequence content": "GUUCAGCAAUAUUACGAUCC", "qualitative label": "1 (yes)"}
{"sequence content": "GGCAAGCAAUAUUACGACGG", "qualitative label": "0 (no)"}
{"sequence content": "UCAAAGCAAUAUUACGUCAG", "qualitative label": "1 (yes)"}
{"sequence content": "UGAAAGCAAUAUUACGGCGG", "qualitative label": "1 (yes)"}
{"sequence content": "GGCUAGCAAUAUUACGUGCG", "qualitative label": "1 (yes)"}
{"sequence content": "AAUGAGCAAUAUUACGCCUG", "qualitative label": "0 (no)"}
{"sequence content": "CAACAGCAAUAUUACGGAUU", "qualitative label": "1 (yes)"}
{"sequence content": "GUACAGCAAUAUUACGUCGG", "qualitative label": "0 (no)"}
{"sequence content": "AUUAAGCAAUAUUACGUUUG", "qualitative label": "1 (yes)"}
{"sequence content": "UUGUAGCAAUAUUACGACCG", "qualitative label": "1 (yes)"}
{"sequence content": "GUCUAGCAAUAUUACGCCUA", "qualitative label": "1 (yes)"}
{"sequence content": "GGCCAGCAAUAUUACGCAGG", "qualitative label": "0 (no)"}
{"sequence content": "CGACAGCAAUAUUACGUGGC", "qualitative label": "0 (no)"}

Cited source: the supplement of paper PMC7877785
